# Tested on: NCI-H2122 cells
# MEASUREMENT PROTOCOL: Soft agar colony formation assay, MTT readout
# Format: cell-based
# ASSAY CONTEXT: Homo sapiens, growth in soft agar, colonies stained with MTT, absorbance 570 nm
Structures can show the parent of a compound that is named as a salt.
PROPERTY MEASURED: IC50 (nM)
Give just the number in nM; leave the unit off.

Please respond with reported IC50 (system NCI-H2122 cells) for CCN(CC)CCCC(C)Nc1c2ccc(Cl)cc2nc2ccc(OC)cc12 (stereo not shown) [Quinacrine dihydrochloride hydrate, hydrate;dihydrochloride] . 2480

Cited source: patent US20250360124A1
